- ASSAY DETAILS: Microsomal stability assay, human liver microsomes
- Format: in vitro ADME
- CONDITION DESCRIPTION: pooled liver microsomes, pH 7.4, read-out: Mics (hu) CLint
PARAMETER: microsomal CLint at 10 µM

MOLECULE	microsomal CLint at 10 µM
COC(=O)c1ccc2cc(-c3nc(Cl)nc4c3ccn4[C@@H]3O[C@H](COP(=O)(O)CP(=O)(O)O)[C@@H](O)[C@H]3O)ccc2c1	< 2 µL/min/mg
O=P(O)(O)CP(=O)(O)OC[C@H]1O[C@@H](n2ccc3c(-c4cccc5c4CCCC5)nc(Cl)nc32)[C@H](O)[C@@H]1O	< 1 µL/min/mg
O=P(O)(O)CP(=O)(O)OC[C@H]1O[C@@H](n2ccc3c(-c4ccc5ccccc5c4)nc(F)nc32)[C@H](O)[C@@H]1O [14D.7]	< 1 µL/min/mg

Output measured microsomal CLint at 10 µM for this item: O=P(O)(O)CP(=O)(O)OC[C@H]1O[C@@H](n2ccc3c(-c4cc5ccccc5o4)nc(F)nc32)[C@H](O)[C@@H]1O [14D.8]
< 1 µL/min/mg

Please list microsomal CLint at 10 µM recorded for the molecule Cc1nc(-c2cccc3ccccc23)c2ccn([C@@H]3O[C@H](COP(=O)(O)CP(=O)(O)O)[C@@H](O)[C@H]3O)c2n1 [18E.6]
1 µL/min/mg

Tell me its microsomal CLint at 10 µM given `O=P(O)(O)CP(=O)(O)OC[C@H]1O[C@@H](n2ccc3c(-c4cc5ccccc5[nH]4)nc(Cl)nc32)[C@H](O)[C@@H]1O` as the entry.
< 1 µL/min/mg

Look up and state reported microsomal CLint at 10 µM for O=P(O)(O)CP(=O)(O)OC[C@H]1O[C@@H](n2ccc3c(-c4ccc5c(c4)CCCC5)nc(I)nc32)[C@H](O)[C@@H]1O [27H.23]
< 1 µL/min/mg

Give recorded microsomal CLint at 10 µM. `Nc1ccc(-c2nc(Cl)nc3c2ccn3[C@@H]2O[C@H](COP(=O)(O)CP(=O)(O)O)[C@@H](O)[C@H]2O)c2ccccc12`
< 2 µL/min/mg

Determine its reported microsomal CLint at 10 µM: Nc1nc(-c2cccc3ccccc23)c2ccn([C@@H]3O[C@H](COP(=O)(O)CP(=O)(O)O)[C@@H](O)[C@H]3O)c2n1 [11C.6]
3 µL/min/mg

---

- ASSAY DETAILS: Kinetic solubility in PBS
- Format: physicochemical
- CONDITION DESCRIPTION: phosphate-buffered saline, pH 7.4, aqueous buffer, kinetic from dmso stock
PARAMETER: solubility at 2 h (µM)

COMPOUND	PARAMETER	OUTPUT UNIT	ENDPOINT RESULT
O=P(O)(O)CP(=O)(O)OC[C@H]1O[C@@H](n2ccc3c(-c4cc5ccccc5o4)ncnc32)[C@H](O)[C@@H]1O	solubility at 2 h	µM	98
O=P(O)(O)CP(=O)(O)OC[C@H]1O[C@@H](n2ccc3c(-c4cccc5ccccc45)nc(F)nc32)[C@H](O)[C@@H]1O [14D.6]	solubility at 2 h	µM	89
O=P(O)(O)CP(=O)(O)OC[C@H]1O[C@@H](n2ccc3c(-c4cccc5c4CCCC5)ncnc32)[C@@H](F)[C@@H]1O [34A.12]	solubility at 2 h	µM	75
O=P(O)(O)CP(=O)(O)OC[C@H]1O[C@@H](n2ccc3c(-c4ccnc5ccccc45)ncnc32)[C@@H](F)[C@@H]1O [34A.28]	solubility at 2 h	µM	100
O=P(O)(O)CP(=O)(O)OC[C@H]1O[C@@H](n2ccc3c(-c4ccc5cc(Cl)ccc5c4)nc(Cl)nc32)[C@H](O)[C@@H]1O	solubility at 2 h	µM	89
O=P(O)(O)CP(=O)(O)OC[C@H]1O[C@@H](n2ccc3c(-c4cccc5c4CCCC5)ncnc32)[C@H](O)[C@@H]1O	solubility at 2 h	µM	94
O=P(O)(O)CP(=O)(O)OC[C@H]1O[C@@H](n2ccc3c(-c4cccc5ccoc45)ncnc32)[C@H](O)[C@@H]1O	solubility at 2 h	µM	76
Cc1nc(-c2ccco2)c2ccn([C@@H]3O[C@H](COP(=O)(O)CP(=O)(O)O)[C@@H](O)[C@H]3O)c2n1 [18E.1]	solubility at 2 h	µM	89
O=P(O)(O)CP(=O)(O)OC[C@H]1O[C@@H](n2ccc3c(-c4ccc5c(c4)CCCC5)ncnc32)[C@@H](F)[C@@H]1O [34A.17]	solubility at 2 h	µM	73
Cc1nc(-c2cccc3c2CCCC3)c2ccn([C@@H]3O[C@H](COP(=O)(O)CP(=O)(O)O)[C@@H](O)[C@H]3O)c2n1 [18E.12]	solubility at 2 h	µM	80

The values you see were collected from paper PMC12797170.
